Provenance of the data: PubChem BioAssay AID2540

- test-target: Sentrin-specific protease 8 (Homo sapiens) (UniProt Q96LD8)
- Sequence (Q96LD8 whole entry, looked up): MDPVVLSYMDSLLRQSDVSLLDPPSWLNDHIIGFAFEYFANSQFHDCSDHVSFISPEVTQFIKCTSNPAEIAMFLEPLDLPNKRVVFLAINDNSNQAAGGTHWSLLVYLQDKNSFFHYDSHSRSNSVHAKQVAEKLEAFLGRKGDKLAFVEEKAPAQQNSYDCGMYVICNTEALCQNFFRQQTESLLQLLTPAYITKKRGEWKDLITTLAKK
- assay-notes: blockers of human SENP8 peptidase activity – biochemical, luminescence, primary screen (AID 2540)
- recorded-conditions: purified SENP8, Z-RLRGG-aminoluciferin cleavage, at 10 µM, hits give high values
The whole screen tested about 330,000 compounds, of which about 4,100 (1.2%) were called active. The sample as a whole holds a higher share of actives than the screen did.
# maps each entry to its inhibition
readout-name: inhibition (%)

> print(dat)
                                        smi  reported.result
1  O=C(Nc1ccccc1C(=O)N1CCOCC1)c1ccc(CSc2ccccc2)cc1            -3.32
2  O=C(c1ccc(S(=O)(=O)c2ccccc2)cc1)N1CCCCCC1            -5.04
3            O=S(=O)(c1cccs1)N1CCc2ccccc2C1            -2.48
